Target: the molecule itself
Test: cell-based or functional assay
reportedProperty: Recovery Time Crossover [s], 25 C (s)

>  <protein>
T40A mutant (SEQ ID NO: 82) (designed binder) MRGSHHHHHHGSGRGDSGSGSGSGSGSGSGAPQMLRELQEANAALQDVRELLRQQVKEITFLKNTVMESDASGSGSGSGSGSVDGSPAGSPTSTEEGTSESATPESGPGTSTEPSEGSAPGSPAGSPTSTEEGTSTEPSEGSAPGTSTEPSEGSAPGTSESATPESGPGSEPATSGSETPGSEPATSGSETPGSPAGSPTSTEEGTSESATPESGPGTSTEPSEGSAPLESGSGSGSGSGSGAPQMLRELQEANAALQDVRELLRQQVKEITFLKNTVMESDASGSGSGSGSGSGSGRGDSHHHHHHKLN

>  <readoutUnits>
s

>  <valueMeasured>
4.51

$$$$
